- procedureText: Aqueous solubility of the compound at pH 7
- Format: physicochemical
- conditionDescription: buffer
propertyLabel: solubility

See these solved cases before continuing.
Cc1cc(C)c(CNC(=O)c2cc(-c3ccc(N4CCNCC4)nc3)nc3c2cnn3C(C)C)c(=O)[nH]1 = soluble
Cc1cc(C)c(CNC(=O)c2cc(-c3ccc(CN4CCOCC4)cc3)nc3c2cnn3C(C)C)c(=O)[nH]1 = soluble
Cc1cc(C)c(CNC(=O)c2ccnc3c2cnn3C(C)C)c(=O)[nH]1 = soluble
Cc1cc(C)c(CNC(=O)c2cc(C3=CC(C)(C)NC(C)(C)C3)nc3c2cnn3C(C)C)c(=O)[nH]1 = soluble
COc1cc(C(=O)NCc2c(C)cc(C)[nH]c2=O)c2cnn(C(C)C)c2n1 = soluble
Cc1cc(C)c(CNC(=O)c2cc(Br)nc3c2cnn3C(C)C)c(=O)[nH]1 = soluble
Cc1cc(C)c(CNC(=O)c2cc(C(C)C)nc3c2cnn3C(C)C)c(=O)[nH]1 = soluble

Let's switch to this compound now.
Incoming: Identify solubility associated with the compound Cc1cc(C)c(CNC(=O)c2cc(N3CCNCC3)nc3c2cnn3C(C)C)c(=O)[nH]1
Outgoing: soluble

* * *

- procedureText: Aqueous solubility of the compound at pH 7
- Format: physicochemical
- conditionDescription: aqueous, read-out: solubility
propertyLabel: solubility

Incoming: Identify solubility associated with the compound Cc1cc(C)c(CNC(=O)c2cc(C)n(C3CCCCC3)c2C)c(=O)[nH]1
Outgoing: < 10 µM

* * *

- procedureText: Oral bioavailability in mouse at 10 mg/kg by LC-MS/MS analysis
- Type: ADME, organism-based
- conditionDescription: in vivo
Please provide measured bioavailability for the entries that follow.
One number for each entry, in %.

See these solved cases before continuing.
CCN(c1cc(Cl)cc(C(=O)NCc2c(C)cc(C)[nH]c2=O)c1C)C1CCOCC1 = 1.6
Cc1cc(C)c(CNC(=O)c2cc(-c3ccc(CN4CCOCC4)cc3)cc(N(C)C3CCCC3)c2C)c(=O)[nH]1 = 24
Cc1cc(C)c(CNC(=O)c2cc(-c3ccc4c(c3)OCCO4)nc3c2cnn3C(C)C)c(=O)[nH]1 = 0.5
Cc1cc(C)c(CNC(=O)c2cc(-c3ccc(CN4CCOCC4)cc3)cc3c2cnn3C2CCCC2)c(=O)[nH]1 = 47
Cc1cc(C)c(CNC(=O)c2cc(-c3ccc(CN4CCOCC4)cc3)nc3c2cnn3C(C)C)c(=O)[nH]1 = 41

I would be grateful if you could provide bioavailability for each of the following entries.
1. CCN(c1cc(-c2ccc(CN3CCOCC3)cc2)cc(C(=O)NCc2c(C)cc(C)[nH]c2=O)c1C)C1CCOCC1
2. Cc1cc(C)c(CNC(=O)c2cc(Br)cc(N(C)C3CCOCC3)c2C)c(=O)[nH]1

Outgoing:
[55, 18]

Incoming: Identify bioavailability associated with the compound Cc1cc(C)c(CNC(=O)c2cc(Br)cc(N(C)C3CCCC3)c2C)c(=O)[nH]1
Outgoing: 2

* * *

- procedureText: Clearance in mouse at 2 mg/kg, iv and 10 mg/kg, po by LC-MS/MS analysis
- Type: ADME, organism-based
- conditionDescription: in vivo
propertyLabel: clearance (mL/min/kg)
One number for each entry, in mL/min/kg.

Cc1cc(C)c(CNC(=O)c2cc(-c3ccc(CN4CCOCC4)cc3)cc3c2cnn3C2CCCC2)c(=O)[nH]1 = 11
Cc1cc(C)c(CNC(=O)c2cc(Br)cc(N(C)C3CCCC3)c2C)c(=O)[nH]1 = 18
Cc1cc(C)c(CNC(=O)c2cc(-c3ccc(CN4CCOCC4)cc3)nc3c2cnn3C(C)C)c(=O)[nH]1 = 35
CCN(c1cc(Cl)cc(C(=O)NCc2c(C)cc(C)[nH]c2=O)c1C)C1CCOCC1 = 49
Cc1cc(C)c(CNC(=O)c2cc(-c3ccc(CN4CCOCC4)cc3)cc(N(C)C3CCCC3)c2C)c(=O)[nH]1 = 16

I would be grateful if you could provide clearance for each of the following entries.
1. Cc1cc(C)c(CNC(=O)c2cc(Br)cc(N(C)C3CCOCC3)c2C)c(=O)[nH]1
2. Cc1cc(C)c(CNC(=O)c2cc(-c3ccc4c(c3)OCCO4)nc3c2cnn3C(C)C)c(=O)[nH]1
3. CCN(c1cc(-c2ccc(CN3CCOCC3)cc2)cc(C(=O)NCc2c(C)cc(C)[nH]c2=O)c1C)C1CCOCC1

Outgoing:
90
24
13
